# target or test system: UniProt P03372
# Sequence (P03372 whole entry): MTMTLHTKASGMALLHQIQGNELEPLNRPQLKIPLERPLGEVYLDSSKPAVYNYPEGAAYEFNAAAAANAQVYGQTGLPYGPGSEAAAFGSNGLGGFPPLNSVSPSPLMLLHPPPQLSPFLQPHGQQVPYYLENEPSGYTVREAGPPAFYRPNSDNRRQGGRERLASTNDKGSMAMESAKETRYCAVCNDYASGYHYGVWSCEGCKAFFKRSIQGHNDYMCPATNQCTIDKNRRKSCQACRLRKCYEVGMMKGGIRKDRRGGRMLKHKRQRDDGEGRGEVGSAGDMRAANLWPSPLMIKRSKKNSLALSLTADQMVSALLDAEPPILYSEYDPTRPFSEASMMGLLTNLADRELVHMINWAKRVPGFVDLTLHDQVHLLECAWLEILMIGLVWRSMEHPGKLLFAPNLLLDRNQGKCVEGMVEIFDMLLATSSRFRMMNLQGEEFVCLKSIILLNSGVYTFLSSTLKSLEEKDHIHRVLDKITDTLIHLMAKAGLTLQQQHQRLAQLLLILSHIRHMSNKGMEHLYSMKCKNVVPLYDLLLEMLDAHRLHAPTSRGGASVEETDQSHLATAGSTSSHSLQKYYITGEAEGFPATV
# assay remarks: Inhibition of ERalpha ligand binding domain expressed in HEK293T cells
# Assay type: cell-based, HEK-293T
# measurement conditions: read-out: IC50
pIC50: −log10 of the molar value.
pIC50 reference
property measured: pIC50

> print(dat)
                            chemical.smiles  property.measured  value.operator  readout.value
1  CC(=O)Oc1cc2c(c(OC(C)=O)c1)C(=O)O[C@H](C)CCCCCCC2              pIC50               =           5.08
2  CC(=O)Oc1cc2c(c(OC(C)=O)c1)C(=O)OCCCCCCCCCC2              pIC50               <           5.00
